Reference source: ChEMBL document CHEMBL1145583

The following molecules have recorded IC50 on Glycogen synthase kinase-3 alpha (Homo sapiens, UniProt P49840).
Sequence (P49840 whole entry): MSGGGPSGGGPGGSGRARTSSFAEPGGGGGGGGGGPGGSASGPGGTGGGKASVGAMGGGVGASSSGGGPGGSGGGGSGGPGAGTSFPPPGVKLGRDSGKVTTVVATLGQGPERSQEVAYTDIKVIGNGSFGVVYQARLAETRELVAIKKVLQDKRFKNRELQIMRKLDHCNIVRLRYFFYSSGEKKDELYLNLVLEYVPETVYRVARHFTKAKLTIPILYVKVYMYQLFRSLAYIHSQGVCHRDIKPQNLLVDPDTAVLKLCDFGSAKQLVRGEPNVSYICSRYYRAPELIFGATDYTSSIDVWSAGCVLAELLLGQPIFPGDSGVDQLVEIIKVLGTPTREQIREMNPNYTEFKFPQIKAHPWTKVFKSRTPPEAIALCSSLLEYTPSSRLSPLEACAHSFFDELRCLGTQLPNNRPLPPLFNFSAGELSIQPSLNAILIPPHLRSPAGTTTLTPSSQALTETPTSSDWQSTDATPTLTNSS
Write the number in nM without appending the unit.

Sample answers from the record:
[[record]]
entry_smiles = "O=C(O)CCc1ccc(Nc2ncc3nnn(-c4ccccc4)c3n2)cc1"
scale_unit = "nM"
test_value = 20

[[record]]
entry_smiles = "O=C(O)c1ccc(Nc2ncc3nnn(C45CC6CC(CC(C6)C4)C5)c3n2)cc1"
scale_unit = "nM"
test_value = 80

[[record]]
entry_smiles = "O=[N+]([O-])c1cnc(N[C@H]2CC[C@H](O)CC2)nc1NC12CC3CC(CC(O)(C3)C1)C2"
scale_unit = "nM"
test_value = 123


Ask: Record request: IC50 value, item `OC12CC3CC(C1)CC(Nc1nc(N[C@H]4CC[C@H](O)CC4)ncc1Cl)(C3)C2`
Reply: 133
